tested on: C. pylori EI-393; experiment: MIC by agar dilution method, C. pylori clinical isolate EI-393; type: cell-based; conditions: Helicobacter pylori, EI393, 72 h; EI-393, clinical isolate; in vitro, 37° C., pH 7.0, 3 days, microaerophilic; read-out: antibiotic activity (MIC)
Assay Endpoint: MIC (µg/mL)
Express the result in µg/mL but write the number alone.

- Molecule: "COCCCOc1ccnc(C[S+]([O-])c2nc3ccccc3[nH]2)c1C (centres unmarked) [(I)]"
  Value Unit: "µg/mL"
  MIC: 3.13
- Molecule: "COCCCOc1ccnc(CSc2nc3ccccc3[nH]2)c1C [(II)]"
  Value Unit: "µg/mL"
  MIC: 1.56
- Molecule: "CC1COc2c(N3CCN(C)CC3)c(F)cc3c(=O)c(C(=O)O)cn1c23 (centres unmarked) [(VIII), ofloxacin]"
  Value Unit: "µg/mL"
  MIC: 0.8
- Molecule: "COc1ccc2[nH]c([S+]([O-])Cc3ncc(C)c(OC)c3C)nc2c1 (centres unmarked) [(III)]"
  Value Unit: "µg/mL"
  MIC: 50
- Molecule: "COc1ccc2[nH]c(SCc3ncc(C)c(OC)c3C)nc2c1 [(IV)]"
  Value Unit: "µg/mL"
  MIC: 25
- Molecule: "CC1(C)S[C@@H]2[C@H](NC(=O)[C@H](N)c3ccccc3)C(=O)N2[C@H]1C(=O)O [(VII), ampicillin]"
  Value Unit: "µg/mL"
  MIC: 0.1

Give the measured MIC for CC[C@H]1OC(=O)[C@H](C)[C@@H](O[C@H]2C[C@@](C)(OC)[C@@H](O)[C@H](C)O2)[C@H](C)[C@@H](O[C@@H]2O[C@H](C)C[C@H](N(C)C)[C@H]2O)[C@](C)(O)C[C@@H](C)/C(=N\OCOCCOC)[C@H](C)[C@@H](O)[C@]1(C)O [(VI), roxithromycin] 0.2

Give the measured MIC for Cc1c(OCC(F)(F)F)ccnc1CSc1nc2ccccc2[nH]1 [(V)] 25

====

test system: C. pylori EI-933; experiment: MIC by agar dilution method, C. pylori clinical isolate EI-933; type: cell-based; conditions: Helicobacter pylori, EI933, 72 h; EI-933, clinical isolate; in vitro, 37° C., pH 7.0, 3 days, microaerophilic; read-out: antibiotic activity (MIC)
Assay Endpoint: log10 of MIC (log10 of the value in µg/mL)
Base-10 log of MIC, unit µg/mL.

Completed entries (count: 5):
- Compound: "CC1(C)S[C@@H]2[C@H](NC(=O)[C@H](N)c3ccccc3)C(=O)N2[C@H]1C(=O)O [(VII), ampicillin]"
  Study Target: "C. pylori EI-933"
  log10 of MIC: -1.30
- Compound: "COCCCOc1ccnc(CSc2nc3ccccc3[nH]2)c1C [(II)]"
  Study Target: "C. pylori EI-933"
  log10 of MIC: -0.10
- Compound: "COc1ccc2[nH]c([S+]([O-])Cc3ncc(C)c(OC)c3C)nc2c1 (centres unmarked) [(III)]"
  Study Target: "C. pylori EI-933"
  log10 of MIC: 1.40
- Compound: "Cc1c(OCC(F)(F)F)ccnc1CSc1nc2ccccc2[nH]1 [(V)]"
  Study Target: "C. pylori EI-933"
  log10 of MIC: 1.10
- Compound: "CC[C@H]1OC(=O)[C@H](C)[C@@H](O[C@H]2C[C@@](C)(OC)[C@@H](O)[C@H](C)O2)[C@H](C)[C@@H](O[C@@H]2O[C@H](C)C[C@H](N(C)C)[C@H]2O)[C@](C)(O)C[C@@H](C)/C(=N\\OCOCCOC)[C@H](C)[C@@H](O)[C@]1(C)O [(VI), roxithromycin]"
  Study Target: "C. pylori EI-933"
  log10 of MIC: -1.00

Give the measured log10 of MIC for COCCCOc1ccnc(C[S+]([O-])c2nc3ccccc3[nH]2)c1C (centres unmarked) [(I)] 0.50

Give the measured log10 of MIC for CC1COc2c(N3CCN(C)CC3)c(F)cc3c(=O)c(C(=O)O)cn1c23 (centres unmarked) [(VIII), ofloxacin] -0.40

Give the measured log10 of MIC for COc1ccc2[nH]c(SCc3ncc(C)c(OC)c3C)nc2c1 [(IV)] 1.10

====

system: C. pylori EI-612; assay: MIC by agar dilution method, C. pylori clinical isolate EI-612; format: cell-based; settings: Helicobacter pylori, EI612, 72 h; EI-612, clinical isolate; in vitro, 37° C., pH 7.0, 3 days, microaerophilic; read-out: antibiotic activity (MIC)
// boundary case: MIC equal to 0.4 µg/mL maps to NO; strictly smaller maps to YES

Consider the worked cases shown below.
- Compound: "COc1ccc2[nH]c([S+]([O-])Cc3ncc(C)c(OC)c3C)nc2c1 (centres unmarked) [(III)]"
  Class: "NO"
- Compound: "COc1ccc2[nH]c(SCc3ncc(C)c(OC)c3C)nc2c1 [(IV)]"
  Class: "NO"

Now look at this entry.
Given COCCCOc1ccnc(CSc2nc3ccccc3[nH]2)c1C [(II)] , is recorded MIC strictly lower than 0.4 µg/mL? NO

====

test: Acute Toxicological Test in mice; conditions: mouse, in vivo, iv, female, one time
Assay Endpoint: LD50 (mg/kg)
Express the result in mg/kg but write the number alone.

Give the measured LD50 for COCCCOc1ccnc(C[S+]([O-])c2nc3ccccc3[nH]2)c1C (stereo not shown) [(I)] 237

====

assay: Acute Toxicological Test in mice; conditions: mouse, in vivo, iv, male, one time
Assay Endpoint: LD50 (mg/kg)
Express the result in mg/kg but write the number alone.

Give the measured LD50 for COCCCOc1ccnc(C[S+]([O-])c2nc3ccccc3[nH]2)c1C (stereo not shown) [(I)] 220

====

assay: Acute Toxicological Test in rats; settings: rat, in vivo, iv, male, one time
Assay Endpoint: LD50 (mg/kg)
Express the result in mg/kg but write the number alone.

Give the measured LD50 for COCCCOc1ccnc(C[S+]([O-])c2nc3ccccc3[nH]2)c1C (stereo not shown) [(I)] 157

====

system: C. pylori EI-925; assay: MIC by agar dilution method, C. pylori clinical isolate EI-925; assay type: cell-based; settings: Helicobacter pylori, EI925, 72 h; EI-925, clinical isolate; in vitro, 37° C., pH 7.0, 3 days, microaerophilic; read-out: antibiotic activity (MIC)
Each item that follows carries a reported MIC.
Express the result in µg/mL but write the number alone.

- Compound: "COc1ccc2[nH]c([S+]([O-])Cc3ncc(C)c(OC)c3C)nc2c1 (stereo not drawn) [(III)]"
  MIC, µg/mL: 25
- Compound: "CC[C@H]1OC(=O)[C@H](C)[C@@H](O[C@H]2C[C@@](C)(OC)[C@@H](O)[C@H](C)O2)[C@H](C)[C@@H](O[C@@H]2O[C@H](C)C[C@H](N(C)C)[C@H]2O)[C@](C)(O)C[C@@H](C)/C(=N\\OCOCCOC)[C@H](C)[C@@H](O)[C@]1(C)O [(VI), roxithromycin]"
  MIC, µg/mL: 0.2

Then there is this compound:
Give the measured MIC for COCCCOc1ccnc(C[S+]([O-])c2nc3ccccc3[nH]2)c1C (stereo not drawn) [(I)] 3.13

====

test system: C. pylori EI-925; assay: MIC by agar dilution method, C. pylori clinical isolate EI-925; format: cell-based; details: Helicobacter pylori, EI925, 72 h; EI-925, clinical isolate; in vitro, 37° C., pH 7.0, 3 days, microaerophilic; read-out: antibiotic activity (MIC)
Assay Endpoint: MIC (µg/mL)
Express the result in µg/mL but write the number alone.

Give the measured MIC for COc1ccc2[nH]c(SCc3ncc(C)c(OC)c3C)nc2c1 [(IV)] 12.5

Give the measured MIC for CC1(C)S[C@@H]2[C@H](NC(=O)[C@H](N)c3ccccc3)C(=O)N2[C@H]1C(=O)O [(VII), ampicillin] 0.2

Give the measured MIC for Cc1c(OCC(F)(F)F)ccnc1CSc1nc2ccccc2[nH]1 [(V)] 12.5

Give the measured MIC for COCCCOc1ccnc(CSc2nc3ccccc3[nH]2)c1C [(II)] 0.4

Give the measured MIC for CC1COc2c(N3CCN(C)CC3)c(F)cc3c(=O)c(C(=O)O)cn1c23 (centres unmarked) [(VIII), ofloxacin] 0.4

====

test: Acute Toxicological Test in mice; conditions: mouse, in vivo, po, male, one time
Assay Endpoint: LD50 (mg/kg)
Express the result in mg/kg but write the number alone.

Give the measured LD50 for COCCCOc1ccnc(C[S+]([O-])c2nc3ccccc3[nH]2)c1C (stereo not shown) [(I)] 1210

====

tested on: C. pylori NCTC11637; experiment: MIC by agar dilution method, C. pylori standard strain NCTC11637; format: cell-based; conditions: Helicobacter pylori, 72 h, in vitro, 37° C., pH 7.0, 3 days, microaerophilic, read-out: antibiotic activity (MIC)
Each item that follows carries a reported MIC.
Express the result in µg/mL but write the number alone.

- Compound: "CC1(C)S[C@@H]2[C@H](NC(=O)[C@H](N)c3ccccc3)C(=O)N2[C@H]1C(=O)O [(VII), ampicillin]"
  Value Unit: "µg/mL"
  Observed: 0.4
- Compound: "COCCCOc1ccnc(CSc2nc3ccccc3[nH]2)c1C [(II)]"
  Value Unit: "µg/mL"
  Observed: 0.8
- Compound: "CC1COc2c(N3CCN(C)CC3)c(F)cc3c(=O)c(C(=O)O)cn1c23 (centres unmarked) [(VIII), ofloxacin]"
  Value Unit: "µg/mL"
  Observed: 0.8
- Compound: "COc1ccc2[nH]c([S+]([O-])Cc3ncc(C)c(OC)c3C)nc2c1 (centres unmarked) [(III)]"
  Value Unit: "µg/mL"
  Observed: 50

Then there is this compound:
Give the measured MIC for Cc1c(OCC(F)(F)F)ccnc1CSc1nc2ccccc2[nH]1 [(V)] 25
